experiment: qHTS assay to identify small molecule antagonists of the androgen receptor (AR) signaling pathway - cell viability counter screen (AID 743033; note: nearly all actives have a fitted effect of over 45% in size); settings: AR-bla HEK293 viability, CellTiter-Glo luminescence, 16 h; series mostly up to 58.5 µM
Inconclusive results are not listed. The source made the active and inactive calls. Calls come from the whole dose curve; as a rule, active = well fitted cell-killing curve with a large enough effect in the repeat runs; inconclusive = weak or mixed curves; inactive = no such curve, though single readings can be large or run the other way.
Classes used: active, inactive

compound=Cc1cc(C)cc(OP(=O)(Oc2cc(C)cc(C)c2)Oc2cc(C)cc(C)c2)c1 label_class=inactive
compound=S=C=Nc1cccc2ccccc12 label_class=inactive
compound=CN(C)[C@@H]1C(=O)C(C(N)=O)=C(O)[C@@]2(O)C(=O)C3=C(O)c4c(O)ccc(Cl)c4[C@@](C)(O)[C@H]3C[C@@H]12 label_class=inactive
compound="COc1cc(N)c(Cl)cc1C(=O)NC1CN2CCC1CC2 (stereo unspecified)" label_class=inactive
compound=CN(C)S(=O)(=O)N(SC(F)(Cl)Cl)c1ccccc1 label_class=active
compound="CCCCCCCCCCCCCC[P+](CCCCCC)(CCCCCC)CCCCCC (tested in a mixture with another compound)" label_class=active
compound=[Cd+2].[Cl-].[Cl-] label_class=active
compound=ClC1=C(Cl)[C@]2(Cl)[C@H]3[C@H]([C@H]4C=C[C@H]3C4)[C@@]1(Cl)C2(Cl)Cl label_class=inactive
compound=C[C@]12CC[C@H]3[C@@H](CCC4=CC(=O)CC[C@@]43C)[C@@H]1CC[C@@H]2O label_class=inactive
compound="O=C1c2ccccc2C(=O)C1C(=O)C(c1ccccc1)c1ccc(Cl)cc1 (stereo unspecified)" label_class=active
compound=N#CCCSCCC#N label_class=inactive

====

biological target: Estrogen receptor beta (Homo sapiens); test: qHTS assay to identify small molecule antagonists of the estrogen receptor beta (ER-beta) signaling pathway (AID 1259378); settings: ER-beta-UAS-bla HEK293T, beta-lactamase FRET ratio, 16 h; series mostly up to 92.4 µM
Results filed as inconclusive are left out. Calls of active or inactive are those of the source. Calls follow the shape of the dose curve; as a rule, active = well fitted inhibition curve with a large enough effect in the signal ratio in the repeat runs (not every such curve was filed as active); inconclusive = weak or mixed curves, or effect the other way; inactive = no such curve, though single readings can be large or run the other way; the % refers to the signal ratio.
Classes used: yes = active, no = inactive

molecule=Clc1ccc(C(Cl)(Cl)Cl)c(Cl)c1 label_class=no
molecule=NC(=O)c1ccc(N)nc1 label_class=no
molecule=CC(C)CBr label_class=no
molecule="CCCCCCCCCCCCCCC(Br)C(=O)O (stereo not drawn)" label_class=no
molecule="CC(O)C#N (stereo not drawn)" label_class=no
molecule="CCC(C)c1cc(C(C)(C)C)cc(-n2nc3ccccc3n2)c1O (stereo not drawn)" label_class=no
molecule="Clc1ccc(COC(Cn2ccnc2)c2ccc(Cl)cc2Cl)cc1 (stereo not drawn)" label_class=yes
molecule=CCOP(=S)(OCC)SCS(=O)(=O)CC label_class=no

====

test: qHTS assay to identify small molecule antagonists of the peroxisome proliferator-activated receptor gamma (PPARg) signaling pathway - cell viability counter screen (AID 743194); conditions: PPARg-bla HEK293H viability, CellTiter-Glo luminescence, 17 h; co-treated with 50 nM rosiglitazone unless noted; series mostly up to 62.6 µM; note: nearly all actives have a fitted effect of over 55% in size; note: potency is the fitted concentration of half-maximal effect
Results filed as inconclusive are left out. The source made the active and inactive calls. The call rests on the fitted dose curve; in most records, active means well fitted cell-killing curve with a large enough effect in the repeat runs; inconclusive means weak or mixed curves, or effect the other way; inactive means no such curve, though single readings can be large or run the other way.
Experimental readout: Potency

compound=Oc1c(Cl)c(Cl)cc(Cl)c1Cl experimental_result=inactive
compound=C[C@@H]1CC[C@@]2(OC1)O[C@H]1[C@@H](O)[C@H]3[C@@H]4CC[C@H]5C[C@@H](O[C@@H]6O[C@H](CO)[C@H](O[C@@H]7O[C@H](CO)[C@@H](O)[C@H](O[C@@H]8OC[C@@H](O)[C@H](O)[C@H]8O)[C@H]7O[C@@H]7O[C@H](CO)[C@@H](O)[C@H](O[C@@H]8O[C@H](CO)[C@@H](O)[C@H](O)[C@H]8O)[C@H]7O)[C@H](O)[C@H]6O)[C@H](O)C[C@]5(C)[C@H]4CC[C@]3(C)[C@H]1[C@@H]2C experimental_result="23.2 µM (active)"
compound=CCCCCCCCCC[N+](C)(C)CCCCCCCCCC experimental_result="15.5 µM (active)"
compound=CCCN(CCC)CCc1c[nH]c2ccccc12 experimental_result=inactive
compound="COc1ccc(OC)c(CC(C)N)c1 (stereo not given)" experimental_result=inactive
compound="c1ccc(OCC2CO2)cc1 (stereo not given)" experimental_result=inactive
compound=CC(=O)/C=C/c1ccc2c(c1)OCO2 experimental_result=inactive
compound="C=CCC1=C(C)C(OC(=O)C2C(C=C(C)C)C2(C)C)CC1=O (stereo not given)" experimental_result="58.3 µM (active)"
compound=O=C(CCl)Nc1ccccc1 experimental_result="15.5 µM (active)"
compound=CCCCOCN(C(=O)CCl)c1c(CC)cccc1CC experimental_result=inactive
compound="CNC(C)Cc1ccc2c(c1)OCO2 (stereo not given)" experimental_result=inactive
compound="CC1(C)C(/C=C(\\Cl)C(F)(F)F)C1C(=O)OC(C#N)c1cccc(Oc2ccccc2)c1 (stereo not given)" experimental_result=inactive
compound=CC(C)(O)c1cnn2c(-c3ccc(F)c(-c4c(F)cccc4C#N)c3)cnc2n1 experimental_result=inactive
compound="CCOc1cc(C(C)(C)C)ccc1C1COC(c2c(F)cccc2F)=N1 (stereo not given)" experimental_result="11.8 µM (active)"
compound=Cc1c(Cl)c(=O)oc2cc(OP(=O)(OCCCl)OCCCl)ccc12 experimental_result=inactive

====

test: qHTS RealTime-Glo MT Cell Viability Assay in HEK293 cells - 32 hour (AID 1224868); conditions: RealTime-Glo luminescence; series mostly up to 76.8 µM; note: nearly all actives have a fitted effect of over 50% in size
Records with an inconclusive call do not appear. Active and inactive are the calls of the source. The call rests on the fitted dose curve; in most records, active means well fitted cell-killing curve with a large enough effect in the repeat runs; inconclusive means weak or mixed curves, or effect the other way; inactive means flat fitted curve, though single readings scatter.
Classes used: Y for active, N for inactive

query_smiles=BrCBr label_class=N
query_smiles=CC(=O)c1ccc(-c2ccccc2)cc1 label_class=N
query_smiles=CC(C)OC(=O)C(O)(c1ccc(Cl)cc1)c1ccc(Cl)cc1 label_class=Y
query_smiles=FC(Cl)(Cl)Cl label_class=N
query_smiles=Nc1c(Oc2ccccc2)cc(O)c2c1C(=O)c1ccccc1C2=O label_class=Y
query_smiles=COP(=O)(CCC(=O)NCO)OC label_class=N
query_smiles=Cc1cc(C)cc(OP(=O)(Oc2cc(C)cc(C)c2)Oc2cc(C)cc(C)c2)c1 label_class=N

====

assay: qHTS assay to identify small molecule antagonists of the androgen receptor (AR) signaling pathway using the MDA cell line in the presence of 0.5 nM R1881 - cell viability counter screen (AID 1259242); conditions: MDA-kb2 viability, CellTiter-Fluor protease fluorescence, 16 h; series mostly up to 92.4 µM; note: nearly all actives have a fitted effect of over 45% in size
Inconclusive results are not listed. The source made the active and inactive calls. Calls follow the shape of the dose curve; as a rule, active = well fitted cell-killing curve with a large enough effect in the repeat runs; inconclusive = weak or mixed curves, or effect the other way; inactive = flat fitted curve, though single readings scatter.
Classes used: active, inactive

molecule="CCCN(CC)CC1COC2(CCC(C(C)(C)C)CC2)O1 (centres undefined)" label_class=inactive
molecule=C[C@@H]1CC[C@@]2(OC1)O[C@H]1[C@@H](O)[C@H]3[C@@H]4CC[C@H]5C[C@@H](O[C@@H]6O[C@H](CO)[C@H](O[C@@H]7O[C@H](CO)[C@@H](O)[C@H](O[C@@H]8OC[C@@H](O)[C@H](O)[C@H]8O)[C@H]7O[C@@H]7O[C@H](CO)[C@@H](O)[C@H](O[C@@H]8O[C@H](CO)[C@@H](O)[C@H](O)[C@H]8O)[C@H]7O)[C@H](O)[C@H]6O)[C@H](O)C[C@]5(C)[C@H]4CC[C@]3(C)[C@H]1[C@@H]2C label_class=active
molecule=Oc1ccc(C(=C(Cl)Cl)c2ccc(O)cc2)cc1 label_class=inactive
molecule=OC(c1ccc(Cl)cc1)(c1ccc(Cl)cc1)C(Cl)(Cl)Cl label_class=inactive
molecule="COC(=O)N(C(=O)N1COC2(C(=O)OC)Cc3cc(Cl)ccc3C2=N1)c1ccc(OC(F)(F)F)cc1 (centres undefined)" label_class=inactive
molecule=CN(C)C1CSSSC1 label_class=inactive
molecule=CC1(C)CN=C(NN=C(/C=C/c2ccc(C(F)(F)F)cc2)/C=C/c2ccc(C(F)(F)F)cc2)NC1 label_class=active
molecule=CN(C)C(=S)[S-].CN(C)C(=S)[S-].[Cu+2] label_class=active
molecule=CS(=O)(=O)c1ccc(C(=O)C2C(=O)CCCC2=O)c([N+](=O)[O-])c1 label_class=inactive
molecule=SCc1ccco1 label_class=inactive
molecule="CCOP(=O)(NC(C)C)Oc1ccc(SC)c(C)c1 (centres undefined)" label_class=inactive
molecule=CCS(=O)(=O)c1cccnc1S(=O)(=O)NC(=O)Nc1nc(OC)cc(OC)n1 label_class=inactive
molecule="C1CCC2CCCCC2C1 (centres undefined)" label_class=inactive
molecule=O=[N+]([O-])c1ccc2ccc3cccc4ccc1c2c34 label_class=inactive
molecule=C[C@]12CC[C@H](O)C[C@H]1CC[C@@H]1[C@@H]2C[C@@H](O)[C@]2(C)[C@@H](C3=CC(=O)OC3)CC[C@]12O label_class=inactive
molecule=NC(=O)c1ccc(N)nc1 label_class=inactive
molecule="Clc1ccc(C(c2ccccc2Cl)C(Cl)(Cl)Cl)cc1 (centres undefined)" label_class=inactive
molecule=COC(=O)N(C(=O)N1CO[C@@]2(C(=O)OC)Cc3cc(Cl)ccc3C2=N1)c1ccc(OC(F)(F)F)cc1 label_class=inactive
molecule=O=c1[nH]c2ccccc2n1CCCN1CCC(n2c(=O)[nH]c3cc(Cl)ccc32)CC1 label_class=inactive
